# credit: ChEMBL document CHEMBL3407407

# target: Amyloid-beta precursor protein (Homo sapiens)
# method: Inhibition of amyloid beta(42) aggregation (unknown origin) assessed as A11-positive oligomer formation at 100 uM after 0.5 to 70 hrs by kinetic study
Calls of active or inactive are those of the source. The calls are words filed in the database; no cut-off is given here.
# output must be one of active, inactive

Record lookup: outcome of this test for `CNc1ccc(C(=O)N[C@@H](CCCCNC(=O)OCc2ccccc2)C(=O)O)cc1` ?
inactive

Record lookup: outcome of this test for `CC(C)(C)OC(=O)N[C@@H](CCCCNC(=O)OCc1ccccc1)C(=O)ON1C(=O)CCC1=O` ?
active

Record lookup: outcome of this test for `O=C(NCCCC[C@H](NC(=O)OCc1ccccc1)C(=O)O)OCc1ccccc1` ?
inactive

Record lookup: outcome of this test for `O=C(NCCCC[C@H](NC(=O)OCc1ccccc1)C(=O)ON1C(=O)CCC1=O)OCc1ccccc1` ?
active

Record lookup: outcome of this test for `O=C(NCCCC[C@H](NC(=O)OCC1c2ccccc2-c2ccccc21)C(=O)O)OCc1ccccc1` ?
inactive

Record lookup: outcome of this test for `O[C@H]1[C@H](O)[C@@H](O)[C@H](O)[C@@H](O)[C@@H]1O` ?
inactive
